assay: clinical; conditions: human, in vivo, oral, 200 mg
MEASURED PARAMETER: AUC (ng·h/mL)
State the answer as a number, implicitly in ng·h/mL.

Lab note: measured AUC of Cc1ccc(-c2cc(C(F)(F)F)nn2-c2ccc(S(N)(=O)=O)cc2)cc1 [celecoxib] was 6440
